Source of measurements: patent US10287267B2

# pEC50 annotations
- System: Wnt pathway (Sp5-Luc reporter, TCF/LEF binding sites) in SW480 colon carcinoma cells
- measurement_notes: Screening assay for Wnt activity: Sp5-Luc reporter gene assay
- Type: cell-based, human
- condition_details: Homo sapiens; Sp5-Luc reporter, SW480 cells, 36 to 48 hours
The read-out pEC50 is expressed as -log10 of concentration in moles per litre.

Lookup: Please report the measured pEC50 for Cn1cc(-c2ccc3cnc(NC(=O)C4CC5(C4)CN(CCF)C5)cc3c2)cn1 [Compound 326] tested on Wnt pathway (Sp5-Luc reporter, TCF/LEF binding sites) in SW480 colon carcinoma cells.
Found: 6.36

Lookup: Identify measured pEC50 obtained with Wnt pathway (Sp5-Luc reporter, TCF/LEF binding sites) in SW480 colon carcinoma cells for Cn1cc(-c2ccc3cnc(NC(=O)C4CCN(C5CC5)CC4)cc3c2)cn1 [Compound 76] .
Found: 6.15

Lookup: Report measured pEC50 on Wnt pathway (Sp5-Luc reporter, TCF/LEF binding sites) in SW480 colon carcinoma cells; entry: Cn1cncc1-c1ccc2cnc(NC(=O)C3CCN(CCC(F)(F)F)CC3)cc2c1 [Compound 262]
Found: 5.77

Lookup: Retrieve pEC50 on Wnt pathway (Sp5-Luc reporter, TCF/LEF binding sites) in SW480 colon carcinoma cells; query [2H]C([2H])([2H])n1cc(-c2ccc3cnc(NC(=O)CN4CCCC4)cc3c2)cn1 [Compound 305]
Found: 5.71

Lookup: Give pEC50; test system Wnt pathway (Sp5-Luc reporter, TCF/LEF binding sites) in SW480 colon carcinoma cells; compound Cn1cncc1-c1ccc2cnc(NC(=O)[C@H]3CCCO3)cc2c1 [Compound 537]
Found: 5.32

# context switch: different compound, same pEC50
Lookup: Quote pEC50 with test system Wnt pathway (Sp5-Luc reporter, TCF/LEF binding sites) in SW480 colon carcinoma cells for Cn1cc(-c2ccc3cnc(NC(=O)C4CCN(Cc5ccccc5)CC4)cc3c2)cn1 [Compound 335]
Found: 6.00

====

- measured_on: recombinant DYRK1A kinase (Homo sapiens (Human))
- measurement_notes: DYRK1A kinase assay (Ser/Thr 18 peptide Z-lyte FRET)
- Type: biochemical
- condition_details: 30 μM ATP, 1 h room temperature
Reported pEC50 is given for each of the following compounds.
Worth noting: pEC50 values are minus log10 of concentrations stated in mol/L.

Lookup: Output measured pEC50 for this item: Cn1cc(-c2ccc3cnc(NC(=O)C4CCN(CC(=O)O)CC4)cc3c2)cn1
Found: 8.59

Would you kindly look at the next entry?
Lookup: Note down pEC50 recorded for Cc1nnc(-c2ccc3cnc(NC(=O)C4(F)CCN(CC(C)C)CC4)cc3c2)o1
Found: 7.46

====

- Tested on: Tau phosphorylation at Ser396 (pSer396)
- measurement_notes: Tau phosphorylation assay (pSer396 ELISA / western blot) in SH-SY5Y cells
- Assay type: cell-based, human
- condition_details: Homo sapiens, SH-SY5Y, read-out: pSer396 Tau EC50
Recorded EC50, one value per entry.
Reply with just the number (in nM).

Lookup: State, in one line, measured EC50 of Cn1cc(-c2ccc3cnc(NC(=O)C45CCN(CC4)CC5)cc3c2)cn1
Found: 6900

Further cases:
Lookup: Indicate its recorded EC50; the molecule in question is Cc1nnc(-c2ccc3cnc(NC(=O)CN4C5CCC4COC5)cc3c2)s1
Found: 447

Lookup: Give EC50 for Cn1cc(-c2ccc3cnc(NC(=O)CN4C5CCC4COC5)cc3c2)cn1
Found: 4400

Lookup: Specify measured EC50 for Cn1cc(-c2ccc3cnc(NC(=O)CN4C5CCC4CC5)cc3c2)nn1 .
Found: 864

====

- measured_on: recombinant DYRK1A kinase (Homo sapiens (Human))
- measurement_notes: DYRK1A kinase assay (Ser/Thr 18 peptide Z-lyte FRET);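 also: Read-out is the coumarin to fluorescein emission ratio, referenced to unphosphorylated (0%) and phosphorylated (100%) Ser/Thr 18 peptide controls, values from dose-response curves by non-linear regression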
- Type: biochemical
- condition_details: 30 μM ATP, 1 h room temperature
Listed below: pEC50 values for each entry.
Here pEC50 is given on a logarithmic scale as minus log10 of the concentration in mol/L.

Lookup: Under recombinant DYRK1A kinase (Homo sapiens (Human)), report pEC50 for Cn1cc(-c2ccc3cnc(NC(=O)OC(C)(C)C)cc3c2)cn1
Found: 7.11

Lookup: # return pEC50 of CCN(CC)CC(=O)Nc1cc2cc(-c3cnn(C)c3)ccc2cn1 (system: recombinant DYRK1A kinase (Homo sapiens (Human)))
Found: 8.10

Lookup: Report the value of pEC50 obtained on recombinant DYRK1A kinase (Homo sapiens (Human)) for Cn1cc(-c2ccc3cnc(NC(=O)C4CC4)cc3c2)nn1 .
Found: 8.72

Lookup: State measured pEC50 of the compound O=C(Nc1cc2cc(-c3cnco3)ccc2cn1)[C@H]1CCCO1 with recombinant DYRK1A kinase (Homo sapiens (Human)).
Found: 7.87

Lookup: Report value only: pEC50, recombinant DYRK1A kinase (Homo sapiens (Human)), Cn1cc(-c2ccc3cnc(NC(=O)C4CCN(CCF)CC4)cc3c2)cn1
Found: 8.82

Lookup: Provide pEC50, system recombinant DYRK1A kinase (Homo sapiens (Human)), entry CN1CCC(N2CCC(C(=O)Nc3cc4cc(-c5cn(C)nn5)ccc4cn3)CC2)CC1
Found: 8.96

Lookup: Provide pEC50, tested on recombinant DYRK1A kinase (Homo sapiens (Human)), for Cn1cc(-c2ccc3cnc(NC(=O)C4CCC(F)(F)CC4)cc3c2)nn1 .
Found: 8.04

Lookup: Give recombinant DYRK1A kinase (Homo sapiens (Human)) pEC50 for the following compound: CC(C)CN1CCC[C@@H](C(=O)Nc2cc3cc(-c4cn(C)nn4)ccc3cn2)C1
Found: 7.95

Shift focus to the following entry.
Lookup: Give pEC50; test system recombinant DYRK1A kinase (Homo sapiens (Human)); compound Cc1ncc(-c2ccc3cnc(NC(=O)[C@H]4CC[C@H](N(C)C)CC4)cc3c2)o1 [Compound 1082]
Found: 7.99

====

Measured pEC50, listed per entry.
- Test system: Tau phosphorylation at Ser396 (pSer396)
- measurement_notes: Tau phosphorylation assay (pSer396 ELISA / western blot) in SH-SY5Y cells;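 also: EC50 for reduction of Tau pSer396 in lysed cells, measured by colorimetric ELISA or chemiluminescent western blot, both using the same pSer396 antibody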
- Assay type: cell-based, human
- condition_details: Homo sapiens; SH-SY5Y cells, overnight (16-18 h) exposure; read-out: pSer396 Tau EC50
Entry type: numeric. Quantity: pEC50, the -log10 of concentration in molar units.

Worked examples follow.
Lookup: Name the recorded pEC50 of the item O=C(Nc1cc2cc(-c3cnco3)ccc2cn1)C1CCN(C(=O)CN2CCCC2)CC1 in your answer.
Found: 6.37

Lookup: Supply measured pEC50 of Cn1cc(-c2ccc3cnc(NC(=O)[C@H]4CC[C@H](CO)CC4)cc3c2)cn1 in your reply.
Found: 5.96

Lookup: Report measured pEC50; entry is CNc1ncc(-c2ccc3cnc(NC(=O)C4CCNCC4)cc3c2)s1
Found: 5.80

Lookup: Query pEC50 for Cn1cnnc1-c1ccc2cnc(NC(=O)C3CCN(CCC(F)(F)F)CC3)cc2c1
Found: 7.12

Lookup: Tell me measured pEC50 for Cn1cc(-c2ccc3cnc(NC(=O)[C@H]4CC[C@H](N5CCOCC5)CC4)cc3c2)cn1 please.
Found: 6.32

New cases:
Lookup: For the compound CO[C@H]1CC[C@H](C(=O)Nc2cc3cc(-c4cnn(C)c4)ccc3cn2)CC1 , give its measured pEC50 value.
Found: 6.17

Lookup: Give reported pEC50 value for CN(C)C1CCC(C(=O)Nc2cc3cc(-c4cnn(C)c4)ccc3cn2)CC1 (stereo in doubt)
Found: 6.33

====

- System: Wnt pathway (Sp5-Luc reporter, TCF/LEF binding sites) in SW480 colon carcinoma cells
- measurement_notes: Screening assay for Wnt activity: Sp5-Luc reporter gene assay;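 also: firefly luciferase luminescence read in stably transduced SW480 cells carrying the Sp5 promoter reporter with eight TCF/LEF sites, compounds given in 0.1% DMSO final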
- Type: cell-based, human
- condition_details: Homo sapiens; Sp5-Luc reporter, SW480 cells, 36 to 48 hours
quantity_kind: pEC50
In textbook form, pEC50 equals minus log to base ten of the concentration in mol/L.

Worked examples, 5 compounds total:
Lookup: State its pEC50: [2H]C1([2H])OC([2H])([2H])C([2H])([2H])N(CC(=O)Nc2cc3cc(-c4nnc(C)s4)ccc3cn2)C1([2H])[2H]
Found: 5.64

Lookup: Provide measured pEC50 value, entry: CC(C(=O)Nc1cc2cc(-c3cncn3C)ccc2cn1)N1CCCC1 (centres unmarked)
Found: 6.05

Lookup: Supply pEC50 value. Item: CN(CC(=O)Nc1cc2cc(-c3cnn(C)c3)ccc2cn1)C1CCC1
Found: 5.44

Lookup: Look up pEC50 of Cn1cc(-c2ccc3cnc(NC(=O)C4CCN(CCC(F)(F)F)CC4)cc3c2)cn1 and report it.
Found: 5.31

Lookup: Look up and state reported pEC50 for Cn1cc(-c2ccc3cnc(NC(=O)C4CCN(CC5(C(F)(F)F)CC5)CC4)cc3c2)nn1
Found: 5.93

Pending compound:
Lookup: Supply recorded pEC50 for Cn1cc(-c2ccc3cnc(NC(=O)C4CCN(C(=O)CN5CCCC5)CC4)cc3c2)nn1 here.
Found: 6.15
